As shown below, each of these binders has a reported EC50 value.
experimentalTarget: T1, Claudin 18.2 (CLDN18.2), expressed on CHOS-CLDN 18.2 / HEK293-CLDN 18.2 / HCC827-CLDN 18.2 cells (human, UniProt P56856-2 1-261)
T1 construct: whole, on cells; The species is not repeated for the CHOS-CLDN 18.2 cells; also called claudin-18A2
assayName: FACS, CHOS-CLDN18.2 cells
Lab book: enter the figure in µg/mL, no units written.

- binder: "QP14451440 (antibody, human IgG1, kappa, V domains shown, Humanized from QP192193; also called QP14401445) VH: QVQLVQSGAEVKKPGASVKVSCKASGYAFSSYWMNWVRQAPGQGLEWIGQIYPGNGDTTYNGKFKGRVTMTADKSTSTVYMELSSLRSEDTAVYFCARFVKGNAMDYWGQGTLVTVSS VL: DIVMTQSPDSLAVSLGERATISCKSSQSLLNSGNQKNYLTWYQQKPGQPPKLLIYWASTRESGVPDRFSGSGSGTDFTLTISSLQAEDVAVYYCQNAYSYPFTFGQGTKLEIKR"
  EC50 [µg/mL]: 0.223
- binder: "QP192193 (antibody, human IgG1, V domains shown, Chimeric; also called 40F1; mouse-derived chimeric antibody QP192193) VH: QVQLQQSGAELVRPGSSVKISCKASGYAFSSYWMNWVKQRPGQGLEWIGQIYPGNGDTTYNGKFKGQATLTADKSSSTVYMQLSSLTSEDSAVYFCARFVKGNAMDYWGQGTSVTVSS VL: DIVMTQSPSSLTVTAGEKVTMSCKSSQSLLNSGNQKNYLTWYQQNPGQPPKMLIYWASTRESGVPDRFTGSGSGIDFSLTISSVQAEDLALYYCQNAYSYPFTFGSGTKLEIK"
  EC50 [µg/mL]: 0.361
- binder: "QP024025 (antibody, human IgG1, V domains shown, also called IMAB362; 175D10(IMAB362)) VH: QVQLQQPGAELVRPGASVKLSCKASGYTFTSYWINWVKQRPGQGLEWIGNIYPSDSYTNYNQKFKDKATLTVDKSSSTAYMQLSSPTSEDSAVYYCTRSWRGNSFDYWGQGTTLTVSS VL: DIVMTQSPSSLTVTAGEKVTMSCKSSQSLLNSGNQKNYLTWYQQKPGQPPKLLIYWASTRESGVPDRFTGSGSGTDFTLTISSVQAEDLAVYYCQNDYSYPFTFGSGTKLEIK"
  EC50 [µg/mL]: 0.27
- binder: "QP14441441 (antibody, human IgG1, kappa, V domains shown, Humanized from QP192193) VH: QVQLVQSGAEVKKPGASVKVSCKASGYAFSSYWMNWVRQAPGQGLEWIGQIYPGNGDTTYNGKFKGRVTMTADKSTSTVYMELSSLRSEDTAVYYCARFVKGNAMDYWGQGTLVTVSS VL: DIVMTQSPDSLAVSLGERATISCKSSQSLLNSGNQKNYLTWYQQKPGQPPKLLIYWASTRESGVPDRFSGSGSGIDFTLTISSVQAEDVAVYYCQNAYSYPFTFGQGTKLEIKR"
  EC50 [µg/mL]: 0.484

# evaluate next
Which EC50 reading was recorded for the binder QP14451442 (antibody, human IgG1, kappa, V domains shown, Humanized from QP192193) VH: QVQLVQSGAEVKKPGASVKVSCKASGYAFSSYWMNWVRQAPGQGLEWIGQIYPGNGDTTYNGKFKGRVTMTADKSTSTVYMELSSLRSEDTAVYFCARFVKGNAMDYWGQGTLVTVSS VL: DIVMTQSPDSLAVSLGERATISCKSSQSLLNSGNQKNYLTWYQQKPGQPPKMLIYWASTRESGVPDRFSGSGSGIDFTLTISSVQAEDVAVYYCQNAYSYPFTFGQGTKLEIKR ?
0.344
